Consider the following molecules and their measured melting point readings.
MEASURED_ATTRIBUTE: melting point

| MOLECULE | MEASURED_ATTRIBUTE | RESULT |
| --- | --- | --- |
| O=C(c1ccccc1)N1Cc2ccccc2Oc2ccc(Cl)cc21 | melting point | 103 to 106 °C |
| CC(=CC(=O)O)Sc1c[nH]c2ccccc12 | melting point | 201 to 202 °C |
| CC(C)(C)C(=O)OCn1c(-c2cnn(-c3c(Cl)cc(C(F)(F)F)cc3Cl)n2)nc(C#N)c1C#N | melting point | 103 to 104 °C |
| CCOC(=O)c1c(NCCCC(=O)c2ccccc2)c2c(Cl)cc(Cl)cc2n1C(=O)OC(C)(C)C | melting point | 110 to 111 °C |
| COc1c(C=Cc2ccccc2)cc(C(C)(C)C)cc1C=Cc1ccccc1 | melting point | 129 to 130 °C |
| CN(C)C(=S)C1CC(C)(C)Oc2ccc([N+](=O)[O-])cc21 (stereo not given) | melting point | 158 to 160 °C |
| N=C(N)NC(=O)Cn1c(Cc2cccs2)ccc1-c1ccccc1 | melting point | 99 to 120 °C |
| COC(=O)c1cc(SC)cnc1C1=NC(C)(C(C)C)C(=O)N1 (stereo not given) | melting point | 107 to 108 °C |
| N#CCCNNC(=S)c1ccc(OCc2ccccc2)cc1 | melting point | 135 °C |
| Cc1ccc([N+](=O)[O-])c2c1CC(C)O2 (stereo not given) | melting point | 69 to 71 °C |
| CCOC(=O)C(CSC12CC3CC(CC(C3)C1)C2)NC(C)C(=O)O (stereo not given) | melting point | 68 to 72 °C |
| COC(=O)C1=C(CCc2ccccc2)NC(CC(=O)N2CCN(C)CC2)=C(C(=O)OC)C1c1ccccc1Cl (stereo not given) | melting point | 138 °C |
| CCCOc1ncc(I)cc1-c1nc2c(CC)n(Cc3ccccn3)nc2c(=O)[nH]1 | melting point | 229 to 234 °C |
| CC(C)(O)c1cc(O)cc(C(C)(C)O)c1 | melting point | 137 to 138 °C |
| c1ccc2c(Sc3cccc4ccccc34)cccc2c1 | melting point | 108 to 110 °C |
| COc1cc(C=C(C#N)C(=O)Nc2cccc(Cl)c2)cc(Cl)c1O | melting point | 225 to 226 °C |
| Cc1nn(CC(F)(F)F)c(C(=O)O)c1[N+](=O)[O-] | melting point | 135 to 138 °C |
| Nc1cccnc1Nc1ccccc1C(=O)c1ccc(Cl)cc1 | melting point | 145 to 146 °C |
| COc1ccnc(C(=O)N[C@H]2COC(=O)[C@H](Cc3ccccc3)[C@@H](OC(=O)C(C)C)[C@H](C)OC2=O)c1OCc1ccccc1 | melting point | 169 to 170 °C |
| N#CCc1cn2cccc(OCc3ccccc3)c2n1 | melting point | 148 to 150 °C |
| Cc1nnc(-c2ccccc2F)n2nc(OCc3ncn(C)n3)c(-c3ccsc3)c12 | melting point | 214 to 217 °C |
| COc1nc(C)c(C)nc1NC(=O)N1CCN(c2ccc(C(C)=O)cc2)CC1 | melting point | 166 to 168 °C |
| CCc1c(C(=O)OC(C)C)ncc2[nH]c3ccc4sc(NC(C)=O)nc4c3c12 | melting point | 208 to 210 °C |
| O=C(CN1CCC(Cc2ccc(F)cc2)CC1)Nc1ccc2[nH]ncc2c1 | melting point | 149 to 152 °C |
| COc1cc(OC)cc(C(=O)NCC(=O)N2c3ccccc3N(Cc3ccccc3)C(=O)[C@H]3CCC[C@H]32)c1 (relative stereo) | melting point | 113 to 115 °C |
| CC(C)(C)c1cc(-c2nnc(C(N)=S)s2)cc(C(C)(C)C)c1O | melting point | 215 to 216 °C |
| N=C(CC1=CCC=CC1)N1C[C@@H]2C(=O)CCC(c3ccccc3)(c3ccccc3)[C@@H]2C1 (racemic) | melting point | 190 °C |
| O=C1CCC(N2C(=O)c3cccc(NC(=O)c4cccc(C(F)(F)F)c4)c3C2=O)C(=O)N1 (stereo not given) | melting point | 257 to 259 °C |
| Cn1cc(S(N)(=O)=O)c(=O)c2ccc(Cl)cc21 | melting point | 235 to 237 °C |
| CCOC(=O)CCC(C#N)(c1ccccc1)C(C)C (stereo not given) | melting point | 82 to 84 °C |
| C=Cc1ccc(COc2ccc(COC(=O)C(=O)OCC)cc2)cc1 | melting point | 93 °C |
| O=C(O)c1coc(Cc2ccccc2)n1 | melting point | 155 to 156 °C |
| CCN1CCC(C(=O)O)(S(=O)(=O)c2ccc(Oc3ccc(Cl)cc3)cc2)CC1 | melting point | 184 °C |
| CSc1nc(N)nn1C | melting point | 104 to 109 °C |
| CCOC(=O)c1ccccc1-c1cc(-c2ccc(Cl)cc2Cl)no1 | melting point | 85 to 86 °C |
| Cn1nc(-c2ncc(Cl)cc2F)c(C(F)F)c1OC(F)F | melting point | 79 to 81 °C |
| CCC1c2cc(OC)c(OC)cc2C(C=Cc2ccc(N)cc2)=NN(C(C)=O)C1C (stereo not given) | melting point | 104 to 106 °C |
| C#CC(C)Nc1c(C)cccc1C (stereo not given) | melting point | 32 to 33 °C |
| COc1cc2nc(N3CCN(C(=O)C=Cc4cccc(C(F)(F)F)c4)CC3)nc(N)c2cc1OC | melting point | 225 to 227 °C |
| COc1cc(CO)ncc1C | melting point | 102 to 104 °C |

----------
| COMPOUND | melting point |
| --- | --- |
| CCCCC(=O)Nc1cccc2c1C(=O)N(C1CCC(=O)NC1=O)C2=O (stereo unspecified) | 178 to 179 °C |
| CC1CCCCC1N(Cc1ccc(C(=O)NC(C)(C)C(=O)O)cc1)S(=O)(=O)c1ccc(C(F)(F)F)nc1 (stereo unspecified) | 131 to 132 °C |
| COCOc1cc(F)ccc1-c1cc(-c2cccc([N+](=O)[O-])c2)c(C#N)c(NC(=O)c2ccno2)n1 | 161 to 162 °C |
| CC1(C(=O)O)CC1(Br)Br (stereo unspecified) | 108 to 109 °C |
| C[C@@H](Nc1ncnc2[nH]c(-c3ccc(CN)cc3)cc12)c1ccccc1 | 253 to 256 °C |
| NC(=O)c1ccc(-c2ccc3ncn(Cc4ccc5ncccc5c4)c3n2)cc1Cl | 212 to 214 °C |
| O=C(Nc1cccc(Oc2ccccn2)c1)c1ccn2c1CSC2c1cccnc1 (stereo unspecified) | 132 °C |
| N#CCc1ccc(Cl)nc1 | 80 °C |
| N#Cc1c2cccccc-2nc1NCCC(c1ccccc1)c1ccccc1 | 178 to 180 °C |
| COCCNC(=O)c1ccc(C(=O)C=C(c2cc(Cl)cc(Cl)c2)C(F)(F)F)cc1 | 150 to 153 °C |
| COc1cccc(C2(C(N)=O)CCC3(CC2)OCCO3)c1 | 135 to 138 °C |
| CC(C)On1cnc2c(N)nc3ccccc3c21 | 224 to 225 °C |
| Cc1ccn(-c2ccc(C(=O)N3Cc4cccnc4Oc4ccccc43)c(Cl)c2)n1 | 220 to 222 °C |
| COC(=O)C1CCc2sccc2C1=O (stereo unspecified) | 85 to 86 °C |
| CCOC(=O)C(C(=O)OCC)c1cc(=O)n(-c2ccccc2)c2ccccc12 | 101 to 103 °C |
| CCOC(=O)c1cn(C)nc1OCc1ccccc1 | 66 to 67 °C |
| O=S(=O)(NCc1ccc(O)cc1)c1ccc(Cl)cc1 | 187 to 189 °C |
| CN1CCC(N(C)S(=O)(=O)c2ccc(Nc3nc(Cl)cc(Nc4ccc(F)cc4)n3)cc2)CC1 | 140 to 142 °C |
| COC(C)(C)C(=O)C(Oc1ccc(Cl)cc1Cl)n1cncn1 (stereo unspecified) | 53 to 54 °C |
| CCc1cc(C#N)cc(C)c1CC(=O)OC | 65 to 72 °C |
| C=CCc1cc(CNC)ccc1C#CC1(O)CN2CCC1CC2 (stereo unspecified) | 80 °C |

----------
Reported melting point values for the following compounds.
MEASURED_ATTRIBUTE: melting point

| COMPOUND | RESULT |
| --- | --- |
| COc1cc(COc2cc(NC(C)=O)c(Cl)cc2C(=O)CCCCCl)cc(OC)c1 | 135 to 137 °C |
| COC(=O)NC1CN(C(=O)Nc2ccc(OC(F)(F)F)cc2)NC1c1ccc(Cl)cc1 (stereo not given) | 107 to 114 °C |
| COCCCn1c(O)nc2ccc(C)cc21 | 118 to 120 °C |
| COc1cccc(N2CCN(C[C@H]3COc4ccc5nc(C)ccc5c4O3)CC2)c1 | 90 to 91 °C |
| CCCCNC(=O)Oc1c(C)cc(Oc2ccc(C)cc2)cc1C | 110 to 112 °C |

Origin of the recorded values: a melting point compilation (Tetko et al.; mined from patent text by program, amines drawn as free bases though some values may be those of a salt)
